- Tested on: HepaRG
- experimentalProtocol: LDH release cytotoxicity, % of total lysis control; higher = more cytotoxic
- measurementConditions: 0.03162 µM; 48 h
Counter-ions that a name gives are not always drawn.
reportedEndpoint: LDH release cytotoxicity (%)
One number for each entry, in %.

Reference set (5 entries):
[
  {
    "molecule": "Cc1ccccc1COC1CC2(C(C)C)CCC1(C)O2 (stereo unspecified)",
    "LDH release cytotoxicity [%]": -0.203
  },
  {
    "molecule": "O=[N+]([O-])c1cc(C(F)(F)F)c(Cl)c([N+](=O)[O-])c1Nc1ncc(C(F)(F)F)cc1Cl",
    "LDH release cytotoxicity [%]": -1.32
  },
  {
    "molecule": "CC#Cc1cc(C)nc(Nc2ccccc2)n1",
    "LDH release cytotoxicity [%]": -1.35
  },
  {
    "molecule": "CCCCCCCCCC(=O)O",
    "LDH release cytotoxicity [%]": -1.36
  },
  {
    "molecule": "CCCCCCCCCCCC[N+](C)(C)C [Dodecyltrimethylammonium chloride]",
    "LDH release cytotoxicity [%]": -1.4
  }
]

Batch request: LDH release cytotoxicity for each of the following molecules.
1. CCCCCCCc1ccc(O)cc1
2. Cc1cc(O)ccc1Cl

output:
1. -0.653
2. -0.825

Batch request: LDH release cytotoxicity for each of the following molecules.
1. COCCOCCO
2. O=C(O)Cn1c(=O)n(Cc2ccc(Br)cc2F)c(=O)c2ccc(Cl)cc21

output:
1. -0.428
2. -0.858

Batch request: LDH release cytotoxicity for each of the following molecules.
1. O=S(=O)(O)C(F)(F)C(F)(F)C(F)(F)C(F)(F)C(F)(F)C(F)(F)C(F)(F)C(F)(F)F
2. CNC(=O)C=C(C)OP(=O)(OC)OC
3. CC(C)(C)CC(C)(C)c1ccc(O)c(-n2nc3ccccc3n2)c1

output:
1. -1.36
2. -1.04
3. -2.72

Batch request: LDH release cytotoxicity for each of the following molecules.
1. CCCCC(CC)COC(=O)CC(C(=O)OCC(CC)CCCC)S(=O)(=O)O (stereo unspecified) [Docusate sodium]
2. CC(C)OC(=O)Nc1cccc(Cl)c1
3. O=C1C2(Cl)C3(Cl)C4(Cl)C(Cl)(Cl)C5(Cl)C3(Cl)C1(Cl)C5(Cl)C24Cl (stereo unspecified)
4. CS(=O)(=O)c1ccc(C(CC2CCC(=O)C2)C(=O)Nc2cnccn2)cc1Cl (stereo unspecified)
5. CNC(=O)ON=C(C)SC
6. CN1CC=NC1=S

output:
1. -1.66
2. -1.82
3. -0.309
4. -0.668
5. -0.681
6. -0.734

Batch request: LDH release cytotoxicity for each of the following molecules.
1. Clc1ccc(Cl)c(Cl)c1
2. Nc1ccn(C2OC(CO)C(O)C2O)c(=O)n1 (stereo unspecified) [Cytarabine hydrochloride]
3. c1ccc2ncccc2c1
4. CNC(=O)N(C)c1nnc(C(C)(C)C)s1

output:
-0.83
-0.941
-1.44
-1.29

Batch request: LDH release cytotoxicity for each of the following molecules.
1. COP(=S)(OC)Oc1ccc([N+](=O)[O-])c(C)c1
2. C=CC(N)=O [Acrylamide]

output:
-1.98
-0.83

Batch request: LDH release cytotoxicity for each of the following molecules.
1. CC(=O)Oc1ccccc1C(=O)O
2. Clc1ccccc1C(c1ccccc1)(c1ccccc1)n1ccnc1
3. Cc1cn(C2C=CC(CO)O2)c(=O)[nH]c1=O (stereo unspecified)
4. COc1cc(Cl)c(OC)cc1Cl
5. O=[N+]([O-])c1ccc(O)c([N+](=O)[O-])c1
6. CCN(CC)N=O
7. N#CCCCCC#N
8. CCCCCCCCCCCCCCO

output:
1. -1.2
2. -0.964
3. -0.726
4. -1.52
5. -0.273
6. -0.893
7. -0.442
8. -1.1

Batch request: LDH release cytotoxicity for each of the following molecules.
1. CN1CSC(=S)N(C)C1
2. CCOC(=O)NCCOc1ccc(Oc2ccccc2)cc1
3. C=CCc1ccc(OC)c(OC)c1
4. CCNc1nc(Cl)nc(NCC)n1
5. Cc1ncc(C(CCCCCCc2ccc3c(n2)NCCC3)CC(=O)O)cn1 (stereo unspecified)
6. CNS(=O)(=O)c1cc(C(=O)N2CCC(CCN3C4CCC3CC(n3c(C)nc5ccccc53)C4)(c3cccc(F)c3)CC2)c(Cl)cc1F (stereo unspecified)
7. COCCOc1cc2cc(C(=O)NC3CCN(C(C)C)CC3)n(CC(=O)Nc3ccc(Cl)cn3)c2cn1
8. O=[N+]([O-])c1ccccc1

output:
1: -1.04; 2: -2.3; 3: -1.16; 4: -0.667; 5: -1.55; 6: -1.92; 7: -0.433; 8: -0.035

input: # lookup: LDH release cytotoxicity of CCCC1=NC(=S)NC(=O)C1
output: -1.25
